Data provenance: ChEMBL document CHEMBL1123758

// reported inhibition per item
testedTarget: Thromboxane-A synthase (Rattus norvegicus) (UniProt P49430)
conditions: at 100 µM
Your answer is read as %, so omit the unit and give the number.

Take a look at these entries with their results.
O=C(NCCCn1cncn1)c1ccc(Cl)s1 : 64
COc1ccc2[nH]c(C(=O)NCCCn3ccnc3)cc2c1 : 96
O=C(NCCCn1cncn1)c1cc2ccccc2o1 : 84
O=C(NCCCCCn1cncn1)c1ccc(Cl)s1 : 100
O=C(NCCCCCn1ccnc1)c1cc2cc(Cl)ccc2[nH]1 : 100
Cc1nccn1CCCNC(=O)c1ccc(Cl)s1 : 78
Cn1c(C(=O)NCCCn2ccnc2)cc2ccccc21 : 89
O=C(NCCCCn1ccnc1)c1ccco1 : 87
O=C(NCCn1ccnc1)c1sc2ccccc2c1Cl : 70
O=C(NCCCCn1ccnc1)c1sc2ccccc2c1Cl : 91

*Q* Return inhibition (reported value) for this compound: O=C(NCCCn1cnc(-c2ccccc2)c1)c1ccc(Cl)s1
*A* 70

*Q* Return inhibition (reported value) for this compound: Cc1cn(CCCNC(=O)c2cc3ccccc3[nH]2)cn1
*A* 100

*Q* Return inhibition (reported value) for this compound: CC(CCNC(=O)c1ccc(Cl)s1)n1ccnc1 (stereo not drawn)
*A* 100

====

System: Rattus norvegicus
measurementProtocol: Antihypertensive activity was measured in spontaneously hypertensive rats (SHR) at 100 mg/kg peroral dose (2 days); NA denotes inactive
Format: functional, organism-based
Parameters: dose 100 mg/kg
Activity calls are given as the source filed them. The calls are words filed in the database; no cut-off is given here.
propertyLabel: Activity

Take a look at these entries with their results.
O=C(NCCCn1cnc(-c2ccccc2)c1)c1ccc(Cl)s1 : inactive
O=C(NCCCn1ccnc1)c1cc2ccccc2o1 : inactive
Cc1nccn1CCCNC(=O)c1cc2ccccc2n1C : inactive
O=C(NCCCn1cncn1)c1cccs1 : inactive
O=C(NCCCCn1cncn1)c1ccc(Cl)s1 : inactive

*Q* Return Activity (reported value) for this compound: O=C(NCCCCn1cncn1)c1ccco1
*A* inactive

*Q* Return Activity (reported value) for this compound: O=C(NCCCn1ccnc1)c1cc2cc(Cl)ccc2s1
*A* inactive

*Q* Return Activity (reported value) for this compound: O=C(NCCCn1ccnc1)c1sc2cc(F)ccc2c1Cl
*A* inactive

*Q* Return Activity (reported value) for this compound: O=C(NCCCn1cncn1)c1ccc(Cl)s1
*A* inactive

*Q* Return Activity (reported value) for this compound: O=C(NCCCn1ccnc1)c1cccnc1
*A* inactive

*Q* Return Activity (reported value) for this compound: Cc1cn(CCCNC(=O)c2cc3cc(Cl)ccc3[nH]2)cn1
*A* inactive

*Q* Return Activity (reported value) for this compound: O=C(NCCCn1cncn1)c1cc2ccccc2o1
*A* inactive

*Q* Return Activity (reported value) for this compound: O=C(NC/C=C/Cn1ccnc1)c1ccc(Cl)s1
*A* inactive

====

testedTarget: Thromboxane-A synthase (Rattus norvegicus, UniProt P49430)
propertyLabel: pIC50
// field semantics: pIC50 = negative decimal log of concentration (mol/L)

*Q* Return pIC50 (reported value) for this compound: O=C(NCCCCn1ccnc1)c1ccc(Cl)nc1
*A* 5.10

*Q* Return pIC50 (reported value) for this compound: O=C(NCCCn1ccnc1)c1sc2ccccc2c1Cl
*A* 6.52

*Q* Return pIC50 (reported value) for this compound: O=C(NCCCn1ccnc1)c1cc(Br)c(Br)s1
*A* 6.40

*Q* Return pIC50 (reported value) for this compound: O=C(NCCCn1ccnc1)c1cc2ccccc2o1
*A* 6.52

*Q* Return pIC50 (reported value) for this compound: O=C(NCCCn1ccnc1)c1cc2cc(Cl)ccc2s1
*A* 7.00

*Q* Return pIC50 (reported value) for this compound: O=C(NCCCCCn1ccnc1)c1ccc(Cl)nc1
*A* 5.52

*Q* Return pIC50 (reported value) for this compound: O=C(NCCCn1ccnc1)c1ccc(Cl)s1
*A* 6.22

*Q* Return pIC50 (reported value) for this compound: O=C(NCCCCCn1ccnc1)c1ccc(Cl)s1
*A* 6.70

*Q* Return pIC50 (reported value) for this compound: O=C(NCCCCCCn1ccnc1)c1ccc(Cl)s1
*A* 6.70

====

testedTarget: Thromboxane-A synthase (Rattus norvegicus) (UniProt P49430)
Sequence (whole entry): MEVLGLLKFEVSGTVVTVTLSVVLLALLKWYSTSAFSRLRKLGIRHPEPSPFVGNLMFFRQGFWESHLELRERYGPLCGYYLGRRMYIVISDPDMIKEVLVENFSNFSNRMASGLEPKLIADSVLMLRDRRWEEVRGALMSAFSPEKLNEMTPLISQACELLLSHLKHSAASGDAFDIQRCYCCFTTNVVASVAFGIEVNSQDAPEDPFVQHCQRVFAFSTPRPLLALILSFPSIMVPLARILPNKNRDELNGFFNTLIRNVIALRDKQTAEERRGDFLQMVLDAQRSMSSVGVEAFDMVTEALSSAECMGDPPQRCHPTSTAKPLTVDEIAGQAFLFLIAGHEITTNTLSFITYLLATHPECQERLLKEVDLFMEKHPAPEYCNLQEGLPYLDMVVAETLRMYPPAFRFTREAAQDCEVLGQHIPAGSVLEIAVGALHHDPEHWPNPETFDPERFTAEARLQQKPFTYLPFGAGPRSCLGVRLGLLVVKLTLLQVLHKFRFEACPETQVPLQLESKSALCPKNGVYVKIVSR
conditions: at 100 µM
// reported inhibition per item
Your answer is read as %, so omit the unit and give the number.

Take a look at these entries with their results.
O=C(NCCCn1ccnc1)c1ccc([N+](=O)[O-])o1 : 64
O=C(NCCCn1ccnc1)c1ccco1 : 97
CC(CNC(=O)c1cc2cc(Cl)ccc2[nH]1)Cn1ccnc1 (stereo not drawn) : 100
O=C(NCCCCn1ccnc1)c1cc2ccccc2[nH]1 : 100
Cc1ccc2c(Cl)c(C(=O)NCCCn3ccnc3)sc2c1 : 96
Cc1nccn1CCCNC(=O)c1cc2ccccc2n1C : 56
O=C(NCCn1ccnc1)c1ccco1 : 65
O=C(NCCCCn1cncn1)c1ccc(Cl)s1 : 83
Cc1cn(CCCNC(=O)c2ccc(Cl)s2)cn1 : 95
O=C(NC/C=C/Cn1ccnc1)c1ccc(Cl)s1 : 100

*Q* Return inhibition (reported value) for this compound: O=C(NCCCn1ccnc1)c1sc2cc(F)ccc2c1Cl
*A* 96

*Q* Return inhibition (reported value) for this compound: O=C(NCCCCn1ccnc1)c1ccc(Cl)s1
*A* 99

*Q* Return inhibition (reported value) for this compound: O=C(NCCCn1ccnc1)c1cccs1
*A* 93

====

testedTarget: Thromboxane-A synthase (Rattus norvegicus)
conditions: at 100 µM
propertyLabel: inhibition (%)
Your answer is read as %, so omit the unit and give the number.

O=C(NCCCn1ccnc1)c1cc2cc(Cl)ccc2[nH]1 : 95
O=C(NCCCn1ccnc1)c1cc(Br)c(Br)s1 : 100
O=C(NCCCCCCn1ccnc1)c1ccc(Cl)s1 : 100
O=C(NCCCCn1cncn1)c1ccco1 : 22
CC(CCNC(=O)c1cc2cc(Cl)ccc2[nH]1)n1ccnc1 (configuration not stated) : 98

*Q* Return inhibition (reported value) for this compound: Cc1cn(CCCNC(=O)c2cc3cc(Cl)ccc3[nH]2)cn1
*A* 100

*Q* Return inhibition (reported value) for this compound: O=C(NCCCn1cncn1)c1cccs1
*A* 30

====

testedTarget: Thromboxane-A synthase (Rattus norvegicus) (UniProt P49430)
measurementProtocol: Inhibition of thromboxane formation at a concentration of 10e -4 M.
propertyLabel: inhibition (%)
Your answer is read as %, so omit the unit and give the number.

Take a look at these entries with their results.
O=C(NCCCCn1ccnc1)c1ccc(Cl)nc1 : 94
Cc1nccn1CCCNC(=O)c1ccc(Cl)nc1 : 44
O=C(NCCCCCn1ccnc1)c1ccc(Cl)nc1 : 100
O=C(NCCCn1ccnc1)c1cccnc1Cl : 64
O=C(NCCCn1ccnc1)c1ccc(Cl)nc1 : 87
CC(CCNC(=O)c1ccc(Cl)nc1)n1ccnc1 (stereo not given) : 98

*Q* Return inhibition (reported value) for this compound: Cc1cn(CCCNC(=O)c2ccc(Cl)nc2)cn1
*A* 86

*Q* Return inhibition (reported value) for this compound: CC(CNC(=O)c1ccc(Cl)nc1)Cn1ccnc1 (stereo not given)
*A* 98

*Q* Return inhibition (reported value) for this compound: O=C(NCCCCCCCCn1ccnc1)c1cc2cc(Cl)ccc2[nH]1
*A* 93

*Q* Return inhibition (reported value) for this compound: O=C(NCCCCCCCCn1ccnc1)c1ccc(Cl)s1
*A* 96

====

testedTarget: UniProt:P49430
conditions: at 100 µM
propertyLabel: inhibition (%)
Your answer is read as %, so omit the unit and give the number.

O=C(NCCCn1ccnc1)c1ccc(Br)o1 : 82

*Q* Return inhibition (reported value) for this molecule: O=C(NCCCn1ccnc1)c1cc2ccccc2o1
*A* 97

*Q* Return inhibition (reported value) for this molecule: O=C(NCCCn1ccnc1)c1cc2cc(Cl)ccc2s1
*A* 100

*Q* Return inhibition (reported value) for this molecule: Cc1cn(CCCNC(=O)c2cc3ccccc3n2C)cn1
*A* 85

*Q* Return inhibition (reported value) for this molecule: O=C(NCCCCCn1ccnc1)c1ccc(Cl)s1
*A* 100

*Q* Return inhibition (reported value) for this molecule: O=C(NCCCn1ccnc1)c1ccc(Cl)s1
*A* 95

*Q* Return inhibition (reported value) for this molecule: O=C(NCCCn1ccnc1)c1cccnc1
*A* 83
